test system: Plasmodium berghei; experiment: Luciferase/luciferin-expressing antifolate-resistant parasites were used to infect a culture of HepG2 cells that were pre-incubated with compounds. Infected hepatocytes emit light due to the luciferase reaction. Assay results are presented as the percent inhibition of light emission compared to control. […]; assay type: functional; settings: sporozoite, PBLUC_HILL_SLOPE 0.364, PBLUC_R_SQUARED 0.4, read-out: LUCIFERASE INFECTION ASSAY - IC50
pIC50: −log10 of the molar value.
readout_label: pIC50

Ask: I have this compound here, COC(=O)c1c(NC(=O)CSc2nnc(-c3ccccc3Cl)n2C2CCCC2)sc(C)c1C , and I need its recorded pIC50.
Result: < 5.00

* * *

test system: Plasmodium berghei; assay: Luciferase/luciferin-expressing antifolate-resistant parasites were used to infect a culture of HepG2 cells that were pre-incubated with compounds. Infected hepatocytes emit light due to the luciferase reaction. Assay results are presented as the percent inhibition of light emission compared to control. […]; format: functional; settings: sporozoite, read-out: LUCIFERASE INFECTION ASSAY - IC90
The compounds listed here are annotated with their IC90.

| compound | study_target | IC90 |
| --- | --- | --- |
| COC(=O)C1=CC2C3C(=O)N(c4cc(Cl)cc(Cl)c4)C(=O)C3C1C1C(=O)N(c3cc(Cl)cc(Cl)c3)C(=O)C21 (stereo not given) | Plasmodium berghei | > 5.55 µM |
| Cc1cc(C)c2c(=O)cc(C(=O)Nc3cccnc3)oc2c1 | Plasmodium berghei | 4.06 µM |
| CC(Sc1nc(Nc2ccccc2)c2ccccc2n1)C(=O)Nc1sccc1C#N (stereo not given) | Plasmodium berghei | > 10 µM |

Ask: I have this compound here, C=C(C)C[n+]1cn(C)c(-c2ccccc2)c1-c1ccccc1 , and I need its recorded IC90.
Result: > 10 µM

Ask: I have this compound here, CCCN1C(=O)C(=O)N(CN2CCc3sccc3C2)C1=O , and I need its recorded IC90.
Result: > 2 µM

Ask: I have this compound here, C/C(=N\Nc1cccc([N+](=O)[O-])c1)c1cc2ccccc2o1 , and I need its recorded IC90.
Result: 4.09 µM

* * *

test system: Plasmodium berghei; test: Luciferase/luciferin-expressing antifolate-resistant parasites were used to infect a culture of HepG2 cells that were pre-incubated with compounds. Infected hepatocytes emit light due to the luciferase reaction. Assay results are presented as the percent inhibition of light emission compared to control. […]; type: functional; conditions: sporozoite, HEPG2TOX_HILL_SLOPE 1.06, HEPG2TOX_R_SQUARED 0.491, PBLUC_HILL_SLOPE 3.87, PBLUC_R_SQUARED 0.243, read-out: LUCIFERASE INFECTION ASSAY - IC50
readout_label: IC50

Ask: I have this compound here, CC(C)CCN1C(=O)N(C(C)C)C(=O)C12CCN(Cc1c[nH]c3ccccc13)CC2 , and I need its recorded IC50.
Result: > 8.04 µM

* * *

system: Plasmodium berghei; assay: Luciferase/luciferin-expressing antifolate-resistant parasites were used to infect a culture of HepG2 cells that were pre-incubated with compounds. Infected hepatocytes emit light due to the luciferase reaction. Assay results are presented as the percent inhibition of light emission compared to control. […]; format: functional; details: sporozoite, HEPG2TOX_HILL_SLOPE 1.7, HEPG2TOX_R_SQUARED 0.889, PBLUC_HILL_SLOPE 9.39, PBLUC_R_SQUARED 0.389, read-out: LUCIFERASE INFECTION ASSAY - IC50
readout_label: IC50 (nM)
# unit: nM | format: bare number

Ask: Record lookup: for Plasmodium berghei, what IC50 belongs to CN(C)CCNC(=O)c1ccc(-c2cn3c(-c4ccc(Cl)cc4)cnc3cn2)cc1 ?
Result: 3000

* * *

test system: Plasmodium berghei; assay: Luciferase/luciferin-expressing antifolate-resistant parasites were used to infect a culture of HepG2 cells that were pre-incubated with compounds. Infected hepatocytes emit light due to the luciferase reaction. Assay results are presented as the percent inhibition of light emission compared to control. […]; assay type: functional; details: sporozoite, PBLUC_HILL_SLOPE 1.61, PBLUC_R_SQUARED 0.829, read-out: LUCIFERASE INFECTION ASSAY - IC50
readout_label: pIC50
To interpret pIC50, take it as minus log10 of a concentration measured in moles per litre.

Ask: Record lookup: for Plasmodium berghei, what pIC50 belongs to O=C(NC1CC1)c1ccc(CN(C2CC2)S(=O)(=O)/C=C/c2ccccc2)cc1 ?
Result: 5.99

* * *

test system: Plasmodium berghei; assay: Luciferase/luciferin-expressing antifolate-resistant parasites were used to infect a culture of HepG2 cells that were pre-incubated with compounds. Infected hepatocytes emit light due to the luciferase reaction. Assay results are presented as the percent inhibition of light emission compared to control. […]; assay type: functional; settings: sporozoite, PBLUC_HILL_SLOPE 2.53, PBLUC_R_SQUARED 0.435, read-out: LUCIFERASE INFECTION ASSAY - IC50
readout_label: pIC50
To interpret pIC50, take it as minus log10 of a concentration measured in moles per litre.

Ask: Record lookup: for Plasmodium berghei, what pIC50 belongs to O=C(Nc1ccc(F)cc1F)c1cc(Cl)cc(Cl)c1O ?
Result: 5.32

* * *

system: Plasmodium berghei; assay: Luciferase/luciferin-expressing antifolate-resistant parasites were used to infect a culture of HepG2 cells that were pre-incubated with compounds. Infected hepatocytes emit light due to the luciferase reaction. Assay results are presented as the percent inhibition of light emission compared to control. […]; assay type: functional; conditions: sporozoite, PBLUC_HILL_SLOPE 5.76, PBLUC_R_SQUARED 0.27, read-out: LUCIFERASE INFECTION ASSAY - IC50
readout_label: pIC50
To interpret pIC50, take it as minus log10 of a concentration measured in moles per litre.

Ask: Record lookup: for Plasmodium berghei, what pIC50 belongs to OCc1ccc(-c2cnc3cnc(-c4cccnc4)cn23)cc1 ?
Result: 5.28

* * *

system: Plasmodium berghei; assay: Luciferase/luciferin-expressing antifolate-resistant parasites were used to infect a culture of HepG2 cells that were pre-incubated with compounds. Infected hepatocytes emit light due to the luciferase reaction. Assay results are presented as the percent inhibition of light emission compared to control. […]; type: functional; conditions: sporozoite, HEPG2TOX_HILL_SLOPE 0.766, HEPG2TOX_R_SQUARED 0.225, read-out: LUCIFERASE INFECTION ASSAY - IC50
readout_label: IC50

Ask: I have this compound here, CN(c1ccccc1)c1nccc2nc(-c3ccncc3)[nH]c12 , and I need its recorded IC50.
Result: > 10 µM

* * *

system: Plasmodium berghei; experiment: Luciferase/luciferin-expressing antifolate-resistant parasites were used to infect a culture of HepG2 cells that were pre-incubated with compounds. Infected hepatocytes emit light due to the luciferase reaction. Assay results are presented as the percent inhibition of light emission compared to control. […]; type: functional; details: sporozoite, PBLUC_HILL_SLOPE 6.57, PBLUC_R_SQUARED 0.408, read-out: LUCIFERASE INFECTION ASSAY - IC50
readout_label: pIC50
To interpret pIC50, take it as minus log10 of a concentration measured in moles per litre.

Ask: Record lookup: for Plasmodium berghei, what pIC50 belongs to Cc1nn(-c2ccccc2)c(C)c1C(=O)NCc1cccc(NC(=O)C(C)C)c1 ?
Result: 5.26

* * *

test system: Plasmodium berghei; assay: Luciferase/luciferin-expressing antifolate-resistant parasites were used to infect a culture of HepG2 cells that were pre-incubated with compounds. Infected hepatocytes emit light due to the luciferase reaction. Assay results are presented as the percent inhibition of light emission compared to control. […]; assay type: functional; conditions: sporozoite, HEPG2TOX_HILL_SLOPE 1.45, HEPG2TOX_R_SQUARED 0.907, PBLUC_HILL_SLOPE 17.6, PBLUC_R_SQUARED 0.512, read-out: LUCIFERASE INFECTION ASSAY - IC50
readout_label: pIC50
To interpret pIC50, take it as minus log10 of a concentration measured in moles per litre.

Ask: I have this compound here, CC(C)(C)C1CCc2[nH]c(=O)sc2C1 (stereo unspecified) , and I need its recorded pIC50.
Result: 5.94

* * *

tested on: Plasmodium berghei; assay: Luciferase/luciferin-expressing antifolate-resistant parasites were used to infect a culture of HepG2 cells that were pre-incubated with compounds. Infected hepatocytes emit light due to the luciferase reaction. Assay results are presented as the percent inhibition of light emission compared to control. […]; assay type: functional; settings: sporozoite, HEPG2TOX_HILL_SLOPE 8.38, HEPG2TOX_R_SQUARED 0.289, PBLUC_HILL_SLOPE 16, PBLUC_R_SQUARED 0.427, read-out: LUCIFERASE INFECTION ASSAY - IC50
readout_label: pIC50
To interpret pIC50, take it as minus log10 of a concentration measured in moles per litre.

Ask: Record lookup: for Plasmodium berghei, what pIC50 belongs to COc1ccc(N/N=C2\C=CC(=O)c3ncccc32)cc1 ?
Result: 5.04
